Each record here notes measured Kd.
Target: T1, Human CD19-his protein (human, UniProt P15391 20-291)
T1 construct: bought protein; also called recombinant human CD19-His; CD19 full-length protein; not shown: His tag
T1 sequence (looked up): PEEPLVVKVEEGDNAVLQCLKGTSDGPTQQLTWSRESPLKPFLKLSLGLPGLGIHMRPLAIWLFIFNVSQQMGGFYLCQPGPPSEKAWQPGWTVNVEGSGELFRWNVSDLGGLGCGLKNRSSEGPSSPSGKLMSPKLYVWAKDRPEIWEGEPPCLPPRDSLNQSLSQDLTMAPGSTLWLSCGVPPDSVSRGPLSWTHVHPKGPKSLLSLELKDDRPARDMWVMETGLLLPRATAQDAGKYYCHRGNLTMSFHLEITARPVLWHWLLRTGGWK
Assay: SPR Biacore, Ab captured on Protein A, CD19-His analyte
Your answer is read as nM, so omit the unit and give the number.

INSERT INTO assay_data (binder, meas_value) VALUES
  ('F4.4.6 (antibody, human IgG1, V domains shown, human-murine chimeric antibody, human IgG1 constant) VH: QVQLQQSGAELARPGASVKLSCKASGYTFTSYWMQWVKQRPGQGLEWIGAIYPGDGDSRYTQKFKGKATLTADKSSSTAYMQLSSLASEDSAVYYCARSTTTVLGNNFEYWGQGTTLTVSS VL: QIVLTQSPAIMSALPGEKVTMTCSASSSVSSMHWYQQKSGTSPKRWIYDTSKLASGVPARFSGSGSGTSYSLTISSMEAEDAATYYCQQWSSNPWTFGGGTKLEIK', 9.47);

Task: Give the measured Kd for F3.5.1 (antibody, human IgG1, V domains shown, human-murine chimeric antibody, human IgG1 constant) VH: QAQLQQSGPELVKPGASVKISCKASGYAFSGSWMNWVQQRPGKGLEWIGRIYPGDGDTYYNGKFKDKAILTADKSSSTAYMQLSSLTSEDSAVYFCAQLRYRYVMDYWGQGTSVTVSS VL: DIVLTQSPASLAVSLGQRATISCRASESVSIHGSHLMHWYQQKPGQPPRLLIYAASNLESGVPARFSGSGSETDFTLNIHPVEEEDAATYFCQQGIKDPYTFGGGTKLEIK
Result: 0.543

Task: Give Kd for F4.35.5 (antibody, human IgG1, V domains shown, human-murine chimeric antibody, human IgG1 constant) VH: EIQLQQSGPELVKPGASVKVSCKASGYAFTSYNMYWVKQSHGKSLEWIGYIDPYNGDTRYNQKFKGKATLTVDKSSSTAYMHLNSLTSEDSAVYYCTRSGTGRDYWGQGTTLTVSS VL: QIVLTQSPAIMSASPGEKVTMTCSASSSISYMFWFQQKPGSSPRLLIYDTSSLASGVPVRFSGSGSGTSYTLTISRMEAEDAATYYCQQWSNYPYTFGGGTKLEMK
Result: 15.3
